# system.name: Human CDK12 wt/CycK (Homo sapiens (Human), UniProt Q9NYV4)
# Sequence (Q9NYV4 whole entry): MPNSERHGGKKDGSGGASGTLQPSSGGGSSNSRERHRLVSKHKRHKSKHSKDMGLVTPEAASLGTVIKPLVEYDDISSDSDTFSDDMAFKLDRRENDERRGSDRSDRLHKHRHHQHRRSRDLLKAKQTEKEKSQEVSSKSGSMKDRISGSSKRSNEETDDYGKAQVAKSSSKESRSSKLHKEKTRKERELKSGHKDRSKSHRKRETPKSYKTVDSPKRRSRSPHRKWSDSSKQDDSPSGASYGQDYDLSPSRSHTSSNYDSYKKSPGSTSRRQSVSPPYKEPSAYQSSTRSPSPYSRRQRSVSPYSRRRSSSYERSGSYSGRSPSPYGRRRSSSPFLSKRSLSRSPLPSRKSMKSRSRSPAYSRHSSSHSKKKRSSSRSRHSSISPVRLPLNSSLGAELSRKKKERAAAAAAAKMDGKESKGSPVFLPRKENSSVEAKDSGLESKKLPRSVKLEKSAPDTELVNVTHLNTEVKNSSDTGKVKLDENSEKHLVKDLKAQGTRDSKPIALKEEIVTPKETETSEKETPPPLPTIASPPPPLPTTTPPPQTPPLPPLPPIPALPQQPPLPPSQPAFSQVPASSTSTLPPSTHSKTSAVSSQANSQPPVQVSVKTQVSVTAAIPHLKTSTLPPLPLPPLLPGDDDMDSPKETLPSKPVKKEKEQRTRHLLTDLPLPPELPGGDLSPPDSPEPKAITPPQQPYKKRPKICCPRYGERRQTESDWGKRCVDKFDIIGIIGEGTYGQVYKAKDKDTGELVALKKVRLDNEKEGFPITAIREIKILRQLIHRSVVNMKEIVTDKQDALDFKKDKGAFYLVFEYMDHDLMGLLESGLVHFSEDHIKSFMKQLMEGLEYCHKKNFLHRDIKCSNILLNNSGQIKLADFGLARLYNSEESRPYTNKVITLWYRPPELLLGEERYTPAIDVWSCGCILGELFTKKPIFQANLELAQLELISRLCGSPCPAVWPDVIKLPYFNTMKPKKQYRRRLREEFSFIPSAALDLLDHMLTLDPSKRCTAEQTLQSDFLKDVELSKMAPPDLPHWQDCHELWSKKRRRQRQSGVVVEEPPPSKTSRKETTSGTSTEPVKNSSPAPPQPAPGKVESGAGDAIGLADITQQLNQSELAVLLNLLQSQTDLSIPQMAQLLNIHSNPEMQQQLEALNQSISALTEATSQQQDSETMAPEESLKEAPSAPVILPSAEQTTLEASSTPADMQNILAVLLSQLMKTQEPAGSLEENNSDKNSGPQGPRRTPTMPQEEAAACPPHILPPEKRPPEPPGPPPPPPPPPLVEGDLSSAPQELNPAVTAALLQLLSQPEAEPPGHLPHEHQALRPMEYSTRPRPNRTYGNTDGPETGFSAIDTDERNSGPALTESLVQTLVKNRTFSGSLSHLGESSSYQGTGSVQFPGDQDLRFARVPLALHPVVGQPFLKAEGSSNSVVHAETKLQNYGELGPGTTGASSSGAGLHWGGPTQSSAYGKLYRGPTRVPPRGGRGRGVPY
# Sequence (O75909 whole entry partner): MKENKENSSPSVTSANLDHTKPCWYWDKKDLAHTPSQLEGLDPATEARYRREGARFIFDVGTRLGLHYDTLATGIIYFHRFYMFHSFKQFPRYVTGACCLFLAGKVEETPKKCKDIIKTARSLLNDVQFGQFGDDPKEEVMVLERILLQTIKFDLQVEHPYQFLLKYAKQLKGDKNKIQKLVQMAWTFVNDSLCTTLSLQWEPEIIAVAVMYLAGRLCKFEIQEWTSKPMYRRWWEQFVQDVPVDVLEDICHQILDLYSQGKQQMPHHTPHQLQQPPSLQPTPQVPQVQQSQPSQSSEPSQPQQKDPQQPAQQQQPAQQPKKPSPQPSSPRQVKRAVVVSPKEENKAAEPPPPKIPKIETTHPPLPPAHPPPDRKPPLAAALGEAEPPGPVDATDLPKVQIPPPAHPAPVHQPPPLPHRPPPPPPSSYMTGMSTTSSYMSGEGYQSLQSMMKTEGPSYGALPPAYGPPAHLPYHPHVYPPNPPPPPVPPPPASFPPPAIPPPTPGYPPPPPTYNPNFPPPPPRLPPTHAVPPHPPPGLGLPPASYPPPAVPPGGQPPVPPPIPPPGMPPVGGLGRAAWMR
# protocol.text: Radiometric protein kinase assay (33PanQinase Activity Assay), CDK12
# Assay type: biochemical
# recorded.conditions: ratio of CDK7 IC50 to CDK12 IC50; greater than 1 indicates selectivity for CDK12
property.name: CDK7/CDK12

(1) N#Cc1cnn2c(NCc3ccc(-c4ccccc4)cc3)cc(NC[C@H]3CCNC[C@@H]3O)nc12 [PPA-081]
(2) c1ccc(-c2ccc(CNc3cc(NC[C@H]4CNCCO4)nc4c(C5CC5)cnn34)cc2)nc1 [PPA-032]
(3) O[C@H]1CNCC[C@@H]1CNc1cc(NCc2ccc(-c3nccs3)cc2F)n2ncc(C3CC3)c2n1 [PPA-054]
(4) O[C@H]1CNCC[C@@H]1CNc1cc(NCc2c(F)cc(-c3ccccc3)cc2F)n2ncc(C3CC3)c2n1 [PPA-076]
(5) c1ccc(-c2ccc(CNc3cc(OCC4CNC4)nc4c(C5CC5)cnn34)cc2)nc1 [PPA-055]
Rank by decreasing CDK7/CDK12 the items listed here. Field: ranking. Enter the labels in the order requested. 5, 3, 1, 2, 4
(5: 17.8, 3: 12.0, 1: 6.0, 2: 2.4, 4: 1.5)

(I) N#Cc1cnn2c(NCc3ccc(-c4ccccc4)cc3F)cc(NC[C@H]3CCNC[C@@H]3O)nc12 [PPA-070]
(II) CC(C)c1cnn2c(NCc3ccc(-c4ccccn4)cc3)cc(NC[C@H]3CCNC[C@@H]3O)nc12 [PPA-001]
# min-compare on CDK7/CDK12 between I and II Lab log: write the label of the selected item as the result. II
